Attribution: patent US9145392B2

target: P70S6K (T412E mutant) (Homo sapiens (Human), UniProt P23443, T412E); assay: P70S6K enzyme assay; assay type: biochemical; conditions: read-out: IC50 p70S6K
Sequence (P23443 whole entry T412E): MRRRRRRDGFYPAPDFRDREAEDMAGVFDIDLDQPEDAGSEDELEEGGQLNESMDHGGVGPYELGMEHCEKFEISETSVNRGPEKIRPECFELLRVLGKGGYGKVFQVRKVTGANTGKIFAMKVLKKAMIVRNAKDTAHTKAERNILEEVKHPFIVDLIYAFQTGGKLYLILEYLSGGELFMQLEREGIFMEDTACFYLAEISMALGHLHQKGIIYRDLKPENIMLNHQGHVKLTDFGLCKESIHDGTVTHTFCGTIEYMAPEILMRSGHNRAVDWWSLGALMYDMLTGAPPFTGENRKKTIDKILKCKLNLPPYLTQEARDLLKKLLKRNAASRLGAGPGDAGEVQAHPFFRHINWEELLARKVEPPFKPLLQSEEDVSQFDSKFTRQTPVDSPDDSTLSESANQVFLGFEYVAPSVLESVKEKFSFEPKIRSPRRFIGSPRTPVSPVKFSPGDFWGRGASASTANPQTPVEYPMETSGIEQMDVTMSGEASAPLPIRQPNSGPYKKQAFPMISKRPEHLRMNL
Items are presented alongside their recorded IC50.
Give the value, in units of nM, as a plain number.

Answered cases to consult:
Cc1ccc(-c2cn(CCN3CCC3)c(C3CCN(c4ncnc(N)c4C#N)CC3)n2)cc1C(F)(F)F 0.8
CC(C)c1cc(-c2cn(CCN3CCC3)c(C3CCN(c4ncnc(N)c4Br)CC3)n2)ccn1 0.11
Nc1ncnc(N2CCC(c3nc(-c4ccc(F)c(C(F)(F)F)c4)cn3CCN3CCCCC3)CC2)c1-c1cccc(F)c1 8.7
Cc1ccc(-c2cn(CCN3CCC3)c(C3CCN(c4ncnc(N)c4C(N)=O)CC3)n2)cc1F 25
CCc1c(N)ncnc1N1CCC(c2nc(-c3ccc(Cl)cc3)cn2CCN2CCCC2)CC1 7.4
N#Cc1c(N)ncnc1N1CCC(c2nc(-c3ccc(F)c(Cl)c3)cn2CCN2CCCC2)CC1 0.8
CCc1cc(-c2cn(CCN3CCC3)c(C3CCN(c4ncnc(N)c4C(N)=O)CC3)n2)ccn1 11
Cn1cc(-c2ccc(F)c(C(F)(F)F)c2)nc1C1CCN(c2cc(N)ncn2)CC1 87

Query: Entry CCc1c(N)ncnc1N1CCC(c2nc(-c3ccnc(C(C)C)c3)cn2CCN2CCC2)CC1 has what IC50?
Result: 1.9

Query: Fill in: IC50 of CC(C)NCCn1cc(-c2ccc(F)c(C(F)(F)F)c2)nc1C1CCN(c2ncnc(N)c2C(N)=O)CC1 is ___
Result: 0.9

====

target: P70S6K (T412E mutant) (Homo sapiens (Human), UniProt P23443, T412E); assay: P70S6K enzyme assay; type: biochemical; settings: read-out: IC50 p70S6K
result-type: pIC50
Scale: pIC50 equals -log10([C]), with [C] in mol/L.

compound	assay-value
CN(C)CCn1cc(-c2ccc(F)c(C(F)(F)F)c2)nc1C1CCN(c2ncnc(N)c2-c2ccc(C(=O)O)cc2)CC1 [Compound 89]	8.14
Nc1ncnc(N2CCC(c3nc(-c4ccc(C(F)(F)F)c(F)c4)cn3CCN3CCCC3)CC2)c1C1CCC1 [Compound 254]	8.09
NC(=O)c1c(N)ncnc1N1CCC(c2nc(-c3ccc(F)c(C(F)(F)F)c3)cn2CCNC2CCCC2)CC1 [Compound 387]	8.85
CCc1c(N)ncnc1N1CCC(c2nc(-c3ccc(F)c(C(F)(F)F)c3)cn2CC2CNC2)CC1 [Compound 151]	8.66

Query: # pIC50 lookup, item Nc1ncnc(N2CCC(c3nc(-c4ccc(F)c(C(F)(F)F)c4)c[nH]3)CC2)c1-c1ccc(F)cc1 [Compound 44]
Result: 8.62

Query: pIC50; subject: CCOc1c(N)ncnc1N1CCC(c2nc(-c3ccc(F)c(C(F)(F)F)c3)cn2CCNC(C)C)CC1 [Compound 398]
Result: 8.68

Query: // returns reported pIC50 for input CCc1c(N)ncnc1N1CCC(c2nc(-c3ccnc(Cl)c3)cn2CCN2CCC2)CC1 [Compound 104]
Result: 8.51

====

target: His-AKT (Full Length) (Homo sapiens (Human), UniProt P31749); experiment: AKT enzyme assay; type: biochemical; settings: read-out: IC50 AKT
Sequence (P31749 whole entry): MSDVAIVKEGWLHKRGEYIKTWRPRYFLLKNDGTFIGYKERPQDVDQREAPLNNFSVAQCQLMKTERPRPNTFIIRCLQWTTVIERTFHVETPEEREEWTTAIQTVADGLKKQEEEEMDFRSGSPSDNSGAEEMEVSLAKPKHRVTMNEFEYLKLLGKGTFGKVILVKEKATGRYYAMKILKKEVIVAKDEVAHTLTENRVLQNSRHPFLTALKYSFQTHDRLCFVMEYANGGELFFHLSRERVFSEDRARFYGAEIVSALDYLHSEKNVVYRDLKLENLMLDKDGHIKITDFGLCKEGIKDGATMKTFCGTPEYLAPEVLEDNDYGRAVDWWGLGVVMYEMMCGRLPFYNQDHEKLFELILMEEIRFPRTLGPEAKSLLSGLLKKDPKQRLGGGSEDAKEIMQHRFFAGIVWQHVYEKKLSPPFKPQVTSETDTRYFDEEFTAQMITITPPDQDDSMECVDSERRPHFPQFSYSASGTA
Lab note: cut-off is 100 nM. Strictly less in IC50 is Yes. Exactly 100 nM or more is No.

molecule	discrete-label
Cc1cc(-c2cn(CCNCC(C)C)c(C3CCN(c4ncnc(N)c4C#N)CC3)n2)ccc1F [Compound 390]	Yes
N#Cc1c(N)ncnc1N1CCC(c2nc(-c3cccc(C(F)(F)F)c3)cn2CCN2CCCC2)CC1 [Compound 310]	Yes
CN(CCn1cc(-c2ccc(F)c(C(F)(F)F)c2)nc1C1CCN(c2ncnc(N)c2C(N)=O)CC1)Cc1ccccc1 [Compound 368]	No

Query: Just wondering, is IC50 of CCc1c(N)ncnc1N1CCC(c2nc(-c3cccc(C(F)(F)F)n3)cn2CCN2CCC2)CC1 [Compound 119] below 100 nM?
Result: No

Query: Find out if reported IC50 for Nc1ncnc(N2CCC(c3nc(-c4ccc(F)c(F)c4)cn3CCN3CCCC3)CC2)c1Br [Compound 226] is less than 100 nM
Result: Yes

Query: Below 100 nM on IC50? Entry COc1ccc(-c2cn(CCN3CCC3)c(C3CCN(c4ncnc(N)c4C#N)CC3)n2)cc1Cl [Compound 323]
Result: Yes

Query: Item NC(=O)c1c(N)ncnc1N1CCC(c2nc(-c3ccc(F)c(C(F)(F)F)c3)cn2CCN2CCCC2)CC1 [Compound 331] : IC50 beneath 100 nM, strictly?
Result: Yes

====

biological target: P70S6K (T412E mutant) (Homo sapiens (Human), UniProt P23443, T412E); experiment: P70S6K enzyme assay; format: biochemical; conditions: read-out: IC50 p70S6K
Listed compounds paired with reported pIC50
Remember, pIC50 is on a log scale: it is -log10 of the molar concentration.

compound	result-type	assay-value
CCc1c(N)ncnc1N1CCC(c2nc(-c3ccc(F)cc3)cn2CCN2CCC3(COC3)C2)CC1	pIC50	7.80
CCc1c(N)ncnc1N1CCC(c2nc(-c3ccc(C(F)(F)F)c(F)c3)cn2CCN2CCCC(F)(F)C2)CC1	pIC50	7.80
NC(=O)c1c(N)ncnc1N1CCC(c2nc(-c3ccc(F)c(C(F)(F)F)c3)cn2C2CCNC2)CC1 (stereo not shown)	pIC50	8.77

Query: So what does the record say about pIC50 for N#Cc1c(N)ncnc1N1CCC(c2nc(-c3ccc(F)c(C(F)(F)F)c3)cn2C2CCNC2)CC1 (stereo not shown) ?
Result: 8.57

Query: Entry NC(=O)c1c(N)ncnc1N1CCC(c2nc(-c3cn[nH]c3)cn2CCN2CCC2)CC1 : reported pIC50 = ?
Result: 7.28

Query: Param item = Cc1cc(-c2cn(CCNC3CCCC3)c(C3CCN(c4ncnc(N)c4C#N)CC3)n2)ccc1F ; retrieve measured pIC50.
Result: 9.05

Query: # input compound: CS(=O)(=O)c1cccc(-c2cn(CCN3CCC3)c(C3CCN(c4ncnc(N)c4C(N)=O)CC3)n2)c1 ; wanted: its pIC50
Result: 7.10

====

target: P70S6K (T412E mutant) (Homo sapiens (Human), UniProt P23443, T412E); experiment: P70S6K enzyme assay; format: biochemical; conditions: read-out: IC50 p70S6K
Label class 1 when IC50 < 3 nM; otherwise class 0.

CC(C)NCCn1cc(-c2ccc(F)c(C(F)(F)F)c2)nc1C1CCN(c2ncnc(N)c2C#N)CC1 class 0
Nc1ncnc(N2CCC(c3nc(-c4ccc(C(F)(F)F)c(F)c4)cn3CCN3CCCC3)CC2)c1Cl class 0
CCc1c(N)ncnc1N1CCC(c2nc(-c3ccc(F)c(C(F)(F)F)c3)cn2CCN2CCC2)CC1 class 1

Query: Lab log: compare recorded IC50 with 3 nM; is it strictly lower for Nc1ncnc(N2CCC(c3nc(-c4ccc(F)c(C(F)(F)F)c4)cn3CCN3CCCCC3)CC2)c1Br ?
Result: class 1

====

target: P70S6K (T412E mutant) (Homo sapiens (Human), UniProt P23443, T412E); assay: P70S6K enzyme assay; assay type: biochemical; details: read-out: IC50 p70S6K
result-type: pIC50
In textbook form, pIC50 equals minus log to base ten of the concentration in mol/L.

compound	pIC50
N#Cc1c(N)ncnc1N1CCC(c2nc(-c3ccc(OC(F)F)c(F)c3)cn2CCN2CCC2)CC1 [Compound 314]	8.74
CCOc1c(N)ncnc1N1CCC(c2nc(-c3ccc(F)c(C)c3)cn2CCN2CCCC2)CC1 [Compound 298]	8.17
N#Cc1c(N)ncnc1N1CCC(c2nc(-c3ccc(F)c(C(F)(F)F)c3)cn2CC2CCCN2)CC1 (stereo not shown) [Compound 147]	8.74

Query: API: value(readout=pIC50, system=P70S6K (T412E mutant) (Homo sapiens (Human), UniProt P23443, T412E)) for record CCOCCc1c(N)ncnc1N1CCC(c2nc(-c3ccc(F)c(C(F)(F)F)c3)cn2CCN(C)C)CC1 [Compound 84]
Result: 8.28

Query: Look up pIC50 with P70S6K (T412E mutant) (Homo sapiens (Human), UniProt P23443, T412E) for this compound: C=C(C)c1c(N)ncnc1N1CCC(c2nc(-c3ccc(F)c(C(F)(F)F)c3)cn2CCN2CCCCC2)CC1 [Compound 212]
Result: 8.17

Query: Provide value of pIC50 for this record tested with P70S6K (T412E mutant) (Homo sapiens (Human), UniProt P23443, T412E): FC(F)(F)c1cccc(-c2c[nH]c(C3CCN(c4ncncc4Br)CC3)n2)c1 [Compound 4]
Result: 7.50

Query: Look up pIC50 with P70S6K (T412E mutant) (Homo sapiens (Human), UniProt P23443, T412E) for this compound: CC(C)Oc1c(N)ncnc1N1CCC(c2nc(-c3ccc(F)c(C(F)(F)F)c3)cn2CC2CNC2)CC1 [Compound 175]
Result: 8.23
